Quick reference: protein stability index of the listed items.
system: Saccharomyces cerevisiae; assay: protein stability index of tFT-peptide fusion (C-terminal peptide) (PSI (0-1 scale)); higher = more stable (slower turnover); settings: genetic background: wild type; temperature: 30 C
Metric name: protein stability index

> print(dat)
                             sequence.chain  assay.result
 1     SMVSCLLTLYVL [GTT3 C-terminal 12 aa]          0.48
 2     ALPNWNTPYLRR [UCC1 C-terminal 12 aa]         0.746
 3    DSEDDNDTSSES [PRP38 C-terminal 12 aa]         0.673
 4    HTRRAFLIPFVF [TSC13 C-terminal 12 aa]         0.241
 5  GGQNSPGDMAVA [YDL199C C-terminal 12 aa]         0.741
 6     SVYEHEHEKTFI [FUR4 C-terminal 12 aa]         0.706
 7     SGSGNSSKSNCC [SEC4 C-terminal 12 aa]         0.674
 8     NQIIQARLKDLE [DNF3 C-terminal 12 aa]         0.696
 9     ETDSESEVESIM [SYG1 C-terminal 12 aa]         0.675
10  GAIYVLQWANPT [YBR287W C-terminal 12 aa]         0.662
11     IALAEHRVERSN [CLB3 C-terminal 12 aa]         0.701
12     ANMAAYDKAIHC [LPD1 C-terminal 12 aa]         0.708
13   LVIKRRGFEINT [PET122 C-terminal 12 aa]         0.721
14     NTGSKKSVPTSS [AQY3 C-terminal 12 aa]         0.732
15     EVSTEDTVHDEL [EUG1 C-terminal 12 aa]         0.683
16     SICPAIRRKEDY [RDT1 C-terminal 12 aa]         0.659
17   ITRDESTATYKY [RTT101 C-terminal 12 aa]         0.669
18     KGLVIVKDAIIL [PFF1 C-terminal 12 aa]         0.697
19     GIVPGDCLQEYD [FUS1 C-terminal 12 aa]         0.685
20     KESPANDQASNE [MLP2 C-terminal 12 aa]         0.677
21     RILKDEIPIGED [BET3 C-terminal 12 aa]         0.659
22     VDDSDGDETMQI [TDA1 C-terminal 12 aa]         0.737
23     LRLKGNAKAPGA [CLC1 C-terminal 12 aa]         0.729
24     MGVFILFLDYVG [UFE1 C-terminal 12 aa]         0.314
25     TELRHKRTGGKH [ILV2 C-terminal 12 aa]         0.727

====

test system: Saccharomyces cerevisiae; experiment: protein stability index of tFT-peptide fusion (C-terminal peptide) (PSI (0-1 scale)); higher = more stable (slower turnover); conditions: genetic background: wild type; temperature: 30 C
Outcome: true for protein stability index of at least 0.7; false for anything lower.

> print(dat)
   sequence.chain  class
1    GAVGDRVRVCGS  false
2    VGGAVDFSVFFC  false
3    GLGTIYGGEWWW   true
4    FVLFSIFHFFLW  false
5    PVLPLPSLPSPS  false
6    TKRRKKIPENRI  false

====

tested on: Saccharomyces cerevisiae; assay: protein stability index of tFT-peptide fusion (C-terminal peptide) (PSI (0-1 scale)); higher = more stable (slower turnover); conditions: genetic background: wild type; temperature: 30 C
Outcome: 1 for protein stability index of at least 0.7; -1 for anything lower.

> print(dat)
   sequence.chain  class
1    RSLWGPRVGVFA     -1
2    CVAGSGRGGVKR     -1
3    PVVKGAAGSAQR      1
4    KELIGITYKNSS     -1
5    LYMSRYLQLNFG     -1
6    PQTPQTSTQAPG     -1
7    LVGAGREGRFVA      1
8    GPFVRSALIFIF     -1
9    GSGCLFNRWRIL     -1

====

system: Saccharomyces cerevisiae; assay: protein stability index of tFT-peptide fusion (C-terminal peptide) (PSI (0-1 scale)); higher = more stable (slower turnover); settings: genetic background: das1 deletion; temperature: 30 C
Quick reference: protein stability index of the listed items.
Metric name: protein stability index

> print(dat)
                             sequence.chain              metric.name  assay.result
 1     PLQWLSTWDIAP [PMT6 C-terminal 12 aa]  protein stability index         0.787
 2     DLSSFFNYRSVQ [SPH1 C-terminal 12 aa]  protein stability index          0.75
 3  LPYRMLIRMYPV [YEL014C C-terminal 12 aa]  protein stability index         0.523
 4     VKNVLSKVVPPV [MTC2 C-terminal 12 aa]  protein stability index         0.688
 5     TLEDEALQRNSK [JNM1 C-terminal 12 aa]  protein stability index         0.722
 6     AEETAVFTLPNV [GGA2 C-terminal 12 aa]  protein stability index         0.727
 7     NRSSKIVSIRED [CPR8 C-terminal 12 aa]  protein stability index         0.702
 8     VMKAKRKFNPYT [RRP7 C-terminal 12 aa]  protein stability index         0.686
 9     QPYRSGTLGKRR [AIR2 C-terminal 12 aa]  protein stability index         0.674
10     KSEVERVYKENS [FAA3 C-terminal 12 aa]  protein stability index         0.718
11     LSKMYIGWLPFW [MEC1 C-terminal 12 aa]  protein stability index         0.723
12    LSKDGIYTAVPN [PAU23 C-terminal 12 aa]  protein stability index         0.692

====

system: Saccharomyces cerevisiae; experiment: protein stability index of tFT-peptide fusion (C-terminal peptide) (PSI (0-1 scale)); higher = more stable (slower turnover); conditions: genetic background: wild type; temperature: 30 C
Quick reference: protein stability index of the listed items.
Metric name: protein stability index

> print(dat)
                              sequence.chain              metric.name  assay.result
 1      EDGAVGNLFDDN [MSN5 C-terminal 12 aa]  protein stability index         0.667
 2     QFFLAPKFNDEE [POL30 C-terminal 12 aa]  protein stability index         0.705
 3   LYGKYNYAAQKV [YDL124W C-terminal 12 aa]  protein stability index         0.333
 4      EEADSLYISMGL [LCD1 C-terminal 12 aa]  protein stability index         0.701
 5   STLAGEWRLIIA [YBR284W C-terminal 12 aa]  protein stability index         0.518
 6      GSNELLSILHRK [DCP2 C-terminal 12 aa]  protein stability index         0.694
 7      SIPGITGRAQIS [ORM1 C-terminal 12 aa]  protein stability index         0.666
 8  TSTLAVIPYPAF [YLR466C-B C-terminal 12 aa]  protein stability index         0.755
 9     ESSARRDRKEHI [TMA23 C-terminal 12 aa]  protein stability index         0.701
10     LLYPVKSESSTV [PDR16 C-terminal 12 aa]  protein stability index         0.676
11      LSVTLGEGKYHH [CSG2 C-terminal 12 aa]  protein stability index         0.686
12    KGAFQKVAATSR [RPL24A C-terminal 12 aa]  protein stability index         0.685

====

Quick reference: protein stability index of the listed items.
tested on: Saccharomyces cerevisiae; experiment: protein stability index of tFT-peptide fusion (C-terminal peptide) (PSI (0-1 scale)); higher = more stable (slower turnover); details: genetic background: wild type; temperature: 30 C
Metric name: protein stability index

> print(dat)
    sequence.chain              metric.name  assay.result
 1    KKNIKKKTKQKE  protein stability index         0.696
 2    GEEEGSQGGCEV  protein stability index         0.661
 3    PPPRTFSSSFHV  protein stability index         0.637
 4    TVFFVLGTESRV  protein stability index         0.664
 5    SVRAHGDIQIPR  protein stability index         0.732
 6    ASVIWGGFSDSR  protein stability index         0.719
 7    CDCIAFISRSFS  protein stability index         0.675
 8    PPAPPARFPSPP  protein stability index         0.711
 9    SHSTPAFPLPPP  protein stability index         0.638
10    LVLGLYGVWLVV  protein stability index         0.345
11    GGGGRGMWGIFG  protein stability index         0.676
12    LPPPPLSPPSLV  protein stability index         0.734
13    LCFVFDLASLCW  protein stability index         0.539
14    LSRTAFRPSLTL  protein stability index         0.746
15    FAFSDFHLVVFF  protein stability index         0.684
16    LAPALPPQPPSH  protein stability index         0.658
17    LRSLRFALFPPA  protein stability index         0.642
18    AYKCLPAKGADS  protein stability index         0.695
19    FSGGGRGLGGEV  protein stability index         0.684
